# target_desc: FimH lectin domain (Escherichia coli, UniProt P08191)
# Sequence (P08191 22-179 limits assumed): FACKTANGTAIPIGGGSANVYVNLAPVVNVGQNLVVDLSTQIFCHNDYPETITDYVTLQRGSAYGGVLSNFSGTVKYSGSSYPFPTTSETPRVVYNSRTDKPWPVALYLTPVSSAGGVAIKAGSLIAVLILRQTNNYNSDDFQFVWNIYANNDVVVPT
# procedure_details: biochemical
# Format: binding, E. coli strain J96
# assay_setup: Kd SPR (nM), Table S2
assay_readout: Kd (nM)
Express it in nM; write the number only.

INPUT: Which value of Kd has been reported for "OCC#Cc1ccc(O[C@H]2O[C@H](CO)[C@@H](O)[C@H](O)[C@@H]2O)cc1" in the records?
OUTPUT: 6.9

* * *

Below, each entry is listed alongside its reported Kd.
# target_desc: FimH lectin domain (Escherichia coli)
# procedure_details: biochemical
# Type: binding, E. coli strain J96
# assay_setup: Kd (nM), Table 5, SPR; C-linked mannopyranosides
Express it in nM; write the number only.

Example cases with answers are listed next.
>  <smiles_text>
OC[C@H]1O[C@H](C/C=C/c2ccc(-c3ccccc3)cc2)[C@@H](O)[C@@H](O)[C@@H]1O

>  <target_desc>
FimH lectin domain (Escherichia coli)

>  <Kd / nM>
17

$$$$
>  <smiles_text>
OC[C@H]1O[C@H](CCCc2ccccc2)[C@@H](O)[C@@H](O)[C@@H]1O

>  <target_desc>
FimH lectin domain (Escherichia coli)

>  <Kd / nM>
49

$$$$
>  <smiles_text>
OC[C@H]1O[C@H](C/C=C/c2ccccc2)[C@@H](O)[C@@H](O)[C@@H]1O

>  <target_desc>
FimH lectin domain (Escherichia coli)

>  <Kd / nM>
182

$$$$

INPUT: Request body: readout Kd, system FimH lectin domain (Escherichia coli), query "OC[C@H]1O[C@H](CCCc2ccccc2-c2ccccc2)[C@@H](O)[C@@H](O)[C@@H]1O" . Return the value.
OUTPUT: 123

INPUT: Request body: readout Kd, system FimH lectin domain (Escherichia coli), query "CCC[C@H]1O[C@H](CO)[C@@H](O)[C@H](O)[C@@H]1O" . Return the value.
OUTPUT: 266

INPUT: Request body: readout Kd, system FimH lectin domain (Escherichia coli), query "C=CC[C@H]1O[C@H](CO)[C@@H](O)[C@H](O)[C@@H]1O" . Return the value.
OUTPUT: 118

INPUT: Request body: readout Kd, system FimH lectin domain (Escherichia coli), query "OC[C@H]1O[C@H](C/C=C/c2ccccc2-c2ccccc2)[C@@H](O)[C@@H](O)[C@@H]1O" . Return the value.
OUTPUT: 6.9
